experiment: Inhibition of superoxide dismutase assessed as inhibition of superoxide generation by spectrophotometry
Can you tell me pIC50 for the items I'm about to list?
Scale for pIC50: -log10 of concentration given in mol/L; no unit attached.

Query: Look at this compound and give its reported pIC50. CNC(=O)C1=C(C)C2=C(Nc3ccccc3S2)C(C(=O)NC)C1c1ccccc1Cl (stereo unspecified)
Response: 4.74

Query: Item: CNC(=O)c1c(C)c2c(c(C(=O)NC)c1-c1ccccc1Cl)Nc1ccccc1S2
Response: 4.70

Query: Lookup CNC(=O)c1c(C)c2c(c(C(=O)NC)c1-c1ccc3c(c1)OCO3)Nc1ccccc1S2
Response: 4.70

Query: Now give it for CNC(=O)C1=C(C)C2=C(Nc3ccccc3S2)C(C(=O)NC)C1c1ccccc1C (stereo unspecified) too.
Response: 4.77

Query: Also CNC(=O)c1c(C)c2c(c(C(=O)NC)c1-c1ccccc1C)Nc1ccccc1S2 , if possible.
Response: 4.74

Query: Another: CNC(=O)C1=C(C)C2=C(Nc3ccccc3S2)C(C(=O)NC)C1c1ccc(Cl)cc1 (stereo unspecified)
Response: 4.51

Query: Please do the same for CNC(=O)C1=C(C)C2=C(Nc3ccccc3S2)C(C(=O)NC)C1c1ccc(OC)cc1 (stereo unspecified) as well.
Response: 4.74

Query: Item: CNC(=O)c1c(C)c2c(c(C(=O)NC)c1-c1ccc(OC)cc1)Nc1ccccc1S2
Response: 4.72

Query: Now consider CC(=O)Oc1ccccc1C(=O)O and answer again.
Response: 4.55

Query: And then CNC(=O)C1=C(C)C2=C(Nc3ccccc3S2)C(C(=O)NC)C1c1ccccc1 (stereo unspecified) , what is it?
Response: 4.82

Query: Do the same for CNC(=O)c1c(C)c2c(c(C(=O)NC)c1-c1ccc(Cl)cc1)Nc1ccccc1S2 please
Response: 4.74

Query: Queued: CNC(=O)C1=C(C)C2=C(Nc3ccccc3S2)C(C(=O)NC)C1c1ccc([N+](=O)[O-])cc1 (stereo unspecified)
Response: 4.49

Query: Queued: CNC(=O)c1c(C)c2c(c(C(=O)NC)c1-c1ccccc1)Nc1ccccc1S2
Response: 4.85
